# experiment summary: qHTS Assay for inhibitors of the human cytomegalovirus (HCMV); also: % is scaled to controls: 0 for no effect and ±100 for the full control effect
# recorded conditions: HFF cells, HCMV-luciferase reporter, 72 h; at 57.5 µM; hits give low values
The campaign covered roughly 410,000 compounds. About 18,000 (4.4%) were called active. Not shown: some 7% with an inconclusive outcome. This is one part of a sample in which actives are shown more often than they occur.
Give activity change, negative = inhibition for every item shown.

Please look at the items below and tell me activity change, negative = inhibition for each one, in order.
1. CC(C)CC(NC(=O)C1CCCN1C(=O)[C@@H](C)NC(=O)OCc1ccccc1)C(=O)NCC(N)=O (some centres undefined)
2. CCOc1ccc(Br)cc1S(=O)(=O)Nc1cccc(S(=O)(=O)N(CC)CC)c1
3. O=c1cc(CSc2ccccn2)nc(N2CCN(c3ccccc3)CC2)[nH]1
4. CCN(C(=O)COC(=O)c1cc(NS(=O)(=O)c2ccc(Cl)c([N+](=O)[O-])c2)ccc1O)C1CCCCC1
5. O=C(CCN1CCCCC1)N=Nc1c(O)[nH]c2ccccc12
6. Cc1ccccc1NC(=O)C1CCCN(C(=O)NCc2ccccc2)C1 (centres undefined)
7. O=[N+]([O-])c1cc(S(=O)(=O)Nc2cccc(Cl)c2)ccc1N=Nc1c(O)[nH]c2ccccc12

Reply text:
-24.5% (inactive)
14.1% (inactive)
15.5% (inactive)
-23% (inactive)
8% (inactive)
-18.4% (inactive)
-78.2% (active)

Please look at the items below and tell me activity change, negative = inhibition for each one, in order.
1. Cc1c(C(=O)Nc2cccc(Cl)c2)oc2ccc(S(=O)(=O)N3CCOCC3)cc12
2. CC(C)(C)c1ccc(C(=O)NCc2nnc(SCC(=O)N3CCCc4ccccc43)n2-c2ccccc2)cc1

Reply text:
1. 4.49% (inactive)
2. -18.4% (inactive)
